Please go through the items and note down their Population Healthy Nuclei (%).
Tested on: Fibroblast
Assay: Multiplex assay against human fibroblast
Type: toxicity, cell-based
Conditions: 24 h, 1 µM, compound concentration 1 uM, replicate 1
Answer by giving the amount and then stating its unit.

Data request: Output measured Population Healthy Nuclei (%) for this item: COc1ccccc1CN[C@H]1C2CCN(CC2)[C@H]1C(c1ccccc1)c1ccccc1 [CP-96345]
Data returned: 49%

Data request: Output measured Population Healthy Nuclei (%) for this item: Cc1nc(N2CC[C@H](O)C2)ncc1-c1cc(C(F)(F)F)cc2[nH]ncc12
Data returned: 47%

Data request: Output measured Population Healthy Nuclei (%) for this item: CC(C)OC(=O)N1CCC(Oc2ncnc3c2cnn3-c2ccc(S(C)(=O)=O)cc2F)CC1
Data returned: 58%

Data request: Output measured Population Healthy Nuclei (%) for this item: Cl.O=C(O)c1cc(-c2ccc(C3CCNCC3)cc2)c2ccc(-c3ccc(C(F)(F)F)cc3)cc2c1
Data returned: 47%

Data request: Output measured Population Healthy Nuclei (%) for this item: O=c1cc(N2CCOCC2)oc2c(-c3cccc4c3sc3ccccc34)cccc12
Data returned: 60%

Data request: Output measured Population Healthy Nuclei (%) for this item: Cc1c[nH]c2nccc(Oc3c(F)cc(Nc4cc(Cl)nc(N)n4)cc3F)c12 [BAY-549]
Data returned: 40%

Data request: Output measured Population Healthy Nuclei (%) for this item: CC(C)Oc1ccccc1C(=O)Nc1ccccc1C(=O)Nc1cccc(S(=O)(=O)C(F)(F)F)c1
Data returned: 51%

Data request: Output measured Population Healthy Nuclei (%) for this item: CC(C)c1noc(N2CCC(COc3ccc(-c4ccc(S(C)(=O)=O)cc4)nc3)CC2)n1 [GSK-1292263]
Data returned: 39%

Data request: Output measured Population Healthy Nuclei (%) for this item: CN1CCN(Cc2ccc(Nc3ncc(Cl)c(Nc4ccccc4S(=O)(=O)N(C)C)n3)cc2)CC1 [DUBERMATINIB]
Data returned: 57%

----------
Test system: Fibroblast
Assay: Multiplex assay against human fibroblast
Format: toxicity, cell-based
Conditions: 12 h, 10 µM, compound concentration 10 uM, replicate 1
PARAMETER MEASURED: Population Mitochondria Different-Phenotype (%)
A number alone suffices; assume %.

Data request: Output measured Population Mitochondria Different-Phenotype (%) for this item: Cc1nc(N2CC[C@H](O)C2)ncc1-c1cc(C(F)(F)F)cc2[nH]ncc12
Data returned: 7

Data request: Output measured Population Mitochondria Different-Phenotype (%) for this item: COc1cc2ncn(-c3cc(OCc4ccccc4C(F)(F)F)c(C(N)=O)s3)c2cc1OC [GW843682X]
Data returned: 29

Data request: Output measured Population Mitochondria Different-Phenotype (%) for this item: COc1cc(Nc2nccc(-c3cnn4nc(OC)ccc34)n2)cc(C(F)(F)F)c1
Data returned: 13

----------
Tested on: Fibroblast
Experiment: Multiplex assay against human fibroblast
Type: toxicity, cell-based
Conditions: 48 h, 10 µM, compound concentration 10 uM, replicate 1
Please go through the items and note down their Population Pyknosed Nuclei (%).
A number alone suffices; assume %.

Data request: Output measured Population Pyknosed Nuclei (%) for this item: Cc1c[nH]c2nccc(Oc3c(F)cc(Nc4cc(Cl)nc(N)n4)cc3F)c12
Data returned: 13

Data request: Output measured Population Pyknosed Nuclei (%) for this item: COc1cc(Nc2nccc(-c3cnn4nc(OC)ccc34)n2)cc(C(F)(F)F)c1
Data returned: 9

Data request: Output measured Population Pyknosed Nuclei (%) for this item: CCOC(=O)Nc1cc(-c2ccc(C)c(NS(C)(=O)=O)c2)nn2c(C)nnc12
Data returned: 12

Data request: Output measured Population Pyknosed Nuclei (%) for this item: O=C(c1cc2c(cc1F)OC(c1ccc(F)cc1)(c1ccc(Cl)cc1Cl)O2)N1CCOCC1 (configuration not stated)
Data returned: 24

Data request: Output measured Population Pyknosed Nuclei (%) for this item: COC(=O)C1=C(C)NC(C)=C(C(=O)OCCCN2CCC(c3ccccc3)(c3ccccc3)CC2)[C@H]1c1cccc([N+](=O)[O-])c1
Data returned: 29

Data request: Output measured Population Pyknosed Nuclei (%) for this item: CC1=C(C(=O)Nc2cc3cn[nH]c3cc2F)C(c2ccc(C(F)(F)F)cc2)CC(=O)N1 (configuration not stated)
Data returned: 11

Data request: Output measured Population Pyknosed Nuclei (%) for this item: COc1ccc(-c2ccc3ncc4c(c3c2)n(-c2ccc(N3CCNCC3)c(C(F)(F)F)c2)c(=O)n4C)cn1.O=C(O)/C=C\C(=O)O
Data returned: 4

----------
Test system: HEK-293T
Assay: Multiplex assay against HEK293T
Assay type: toxicity, cell-based
Settings: human, 12 h, 10 µM, compound concentration 10 uM, replicate 1
PARAMETER MEASURED: Population Pyknosed Nuclei (%)
A number alone suffices; assume %.

Data request: Output measured Population Pyknosed Nuclei (%) for this item: CC1=C(C(=O)Nc2cc3cn[nH]c3cc2F)C(c2ccc(C(F)(F)F)cc2)CC(=O)N1 (stereo not given)
Data returned: 45

Data request: Output measured Population Pyknosed Nuclei (%) for this item: Cc1ccc2c(c1)c1c(n2CCc2ccc(C)nc2)CCN(C)C1 [LATREPIRDINE]
Data returned: 57

Data request: Output measured Population Pyknosed Nuclei (%) for this item: Cc1ccc(C)c(Oc2ccncc2C(=O)N2CCN(C3CC3)c3ccccc32)c1
Data returned: 62

Data request: Output measured Population Pyknosed Nuclei (%) for this item: CC(C)OC(=O)N1CCC(Oc2ncnc3c2cnn3-c2ccc(S(C)(=O)=O)cc2F)CC1
Data returned: 51

Data request: Output measured Population Pyknosed Nuclei (%) for this item: COc1cc(Nc2nccc(-c3cnn4nc(OC)ccc34)n2)cc(C(F)(F)F)c1
Data returned: 44

----------
Please go through the items and note down their Population Fragmented Nuclei (%).
Test system: U2OS
Assay: Multiplex assay against U2OS
Format: toxicity, cell-based
Conditions: human, 48 h, 1 µM, compound concentration 1 uM, replicate 1
A number alone suffices; assume %.

Data request: Output measured Population Fragmented Nuclei (%) for this item: CC(C)Oc1ccccc1C(=O)Nc1ccccc1C(=O)Nc1cccc(S(=O)(=O)C(F)(F)F)c1
Data returned: 10

Data request: Output measured Population Fragmented Nuclei (%) for this item: CNC(=O)Nc1ccc(-c2nc(N3CC4CCC(C3)O4)c3cnn(C4CCC5(CC4)OCCO5)c3n2)cc1
Data returned: 39

Data request: Output measured Population Fragmented Nuclei (%) for this item: CCc1ccc(OCc2ccccc2C(=O)Nc2ccc3nc(C)cc(N)c3c2)cc1.Cl
Data returned: 46

Data request: Output measured Population Fragmented Nuclei (%) for this item: COc1cc2ncn(-c3cc(OCc4ccccc4C(F)(F)F)c(C(N)=O)s3)c2cc1OC [GW843682X]
Data returned: 16

Data request: Output measured Population Fragmented Nuclei (%) for this item: CC1=C(C(=O)Nc2cc3cn[nH]c3cc2F)C(c2ccc(C(F)(F)F)cc2)CC(=O)N1 (stereo not drawn)
Data returned: 7

Data request: Output measured Population Fragmented Nuclei (%) for this item: CC(C)OC(=O)N1CCC(Oc2ncnc3c2cnn3-c2ccc(S(C)(=O)=O)cc2F)CC1
Data returned: 6

Data request: Output measured Population Fragmented Nuclei (%) for this item: CN1CCN(Cc2ccc(Nc3ncc(Cl)c(Nc4ccccc4S(=O)(=O)N(C)C)n3)cc2)CC1 [DUBERMATINIB]
Data returned: 29

Data request: Output measured Population Fragmented Nuclei (%) for this item: COC(=O)C1=C(C)NC(C)=C(C(=O)OCCCN2CCC(c3ccccc3)(c3ccccc3)CC2)[C@H]1c1cccc([N+](=O)[O-])c1 [NIGULDIPINE]
Data returned: 23

----------
Tested on: Fibroblast
Experiment: Incucyte cell viability with human fibroblast; also: filed as whole numbers so only -1 and 0 and 1 occur
Type: toxicity, cell-based
Conditions: 18 h, 10 µM, compound concentration 10 uM, replicate number 1, timepoint 18 hours
Please go through the items and note down their Growth Rate.
Give the value as a plain number.

Data request: Output measured Growth Rate for this item: CCc1nn(CCCN2CCN(c3cccc(Cl)c3)CC2)c(=O)n1CCOc1ccccc1.Cl [NEFAZODONE HYDROCHLORIDE]
Data returned: 0

Data request: Output measured Growth Rate for this item: CN1CCN(Cc2cc(NC(=O)c3ccc4c(c3)CN(c3ccccc3)CC4)cc(C(F)(F)F)c2)CC1
Data returned: 0

Data request: Output measured Growth Rate for this item: C[C@H](N)COC(=O)[C@@H](CCCCN)NC(=O)Cc1c(-c2ccc3ccccc3c2)[nH]c2c1ccc1ccccc12
Data returned: 0

Data request: Output measured Growth Rate for this item: COc1ccccc1CN[C@H]1C2CCN(CC2)[C@H]1C(c1ccccc1)c1ccccc1
Data returned: 1

Data request: Output measured Growth Rate for this item: COc1cc2ncnc(Nc3ccc(F)c(Cl)c3)c2cc1OCCCN1CCOCC1
Data returned: 0

Data request: Output measured Growth Rate for this item: CC#CC(=O)N1CCC[C@H]1c1nc(-c2ccc(C(=O)Nc3ccccn3)cc2)c2c(N)nccn12
Data returned: 0

Data request: Output measured Growth Rate for this item: CN1CCN(Cc2ccc(Nc3ncc(Cl)c(Nc4ccccc4S(=O)(=O)N(C)C)n3)cc2)CC1
Data returned: 0

Data request: Output measured Growth Rate for this item: CCOc1cn(-c2ccc(F)cc2C)nc1C(=O)Nc1ccc(Oc2ccnc3cc(OC)c(OC)cc23)c(F)c1
Data returned: 0

Data request: Output measured Growth Rate for this item: O=C(NCc1ncc(C(F)(F)F)cc1Cl)c1ccc2c(c1)C1(CCS(=O)(=O)CC1)[C@@H](C1CC1)N2S(=O)(=O)c1ccc(F)cc1
Data returned: 1

Data request: Output measured Growth Rate for this item: CC(C)NC(=O)N1CC[C@H](NC2=Nc3cc(F)ccc3N(CC(F)F)c3ccc(Cl)cc32)C1
Data returned: 0

Data request: Output measured Growth Rate for this item: O=C(O)C1CN(Cc2ccc(-c3nc4cc(Cc5ccccc5F)ccc4s3)c(F)c2)C1
Data returned: 1

Data request: Output measured Growth Rate for this item: CO[C@@H](C)c1c(Nc2ccc([C@H](N(C)C(=O)C3CCS(=O)(=O)CC3)C(F)(F)F)cc2)cnc2cc(Cl)nn12
Data returned: 0

Data request: Output measured Growth Rate for this item: CC(C)OC(=O)N1CCC(Oc2ncnc3c2cnn3-c2ccc(S(C)(=O)=O)cc2F)CC1
Data returned: 1

Data request: Output measured Growth Rate for this item: O=C([O-])c1cc2ccccc2c(Cc2c(O)c(C(=O)[O-])cc3ccccc23)c1O.[Na+].[Na+]
Data returned: 1

Data request: Output measured Growth Rate for this item: C[C@]1(C(=O)N(CCCC(=O)O)Cc2cccc(Cl)c2)CCN1C(=O)c1csc2ccccc12
Data returned: 1
